Test: Thermal shift (SYPRO orange) melting temperature, apo form
Type: physicochemical
Details: apo state, PBS pH 7.4
# reported Tm (Ave.); entries follow

Molecule	Tm (Ave.)
PapG^LD N96S G104A: PapG lectin domain N96S with G104A ligand binding site mutation; SEQ ID NO: 16 (protein) METDTLLLWVLLLWVPGSTGWNNIVFYSLGNVNSYQGGNVVITQRPQFITSWRPGIATVTWNQCNGPEFADGSWAYYREYIAWVVFPKKVMTKNGYPLFIEVHNKGSWSEENTGDSDSYFFLKAYKWDERAFDAGNLCQKPGETTRLTEKFNDIIFKVALPADLPLGDYSVTIPYTSGIQRHFASYLGARFKIPYNVAKTLPRENEMLFLFKNIGG	64.54 °C
PapG^LD N96S K172A: PapG lectin domain N96S with K172A ligand binding site mutation; SEQ ID NO: 24 (protein) METDTLLLWVLLLWVPGSTGWNNIVFYSLGNVNSYQGGNVVITQRPQFITSWRPGIATVTWNQCNGPEFADGSWAYYREYIAWVVFPKKVMTKNGYPLFIEVHNKGSWSEENTGDSDSYFFLKGYKWDERAFDAGNLCQKPGETTRLTEKFNDIIFKVALPADLPLGDYSVTIPYTSGIQRHFASYLGARFAIPYNVAKTLPRENEMLFLFKNIGG	56.38 °C
PapG^LD N96S R170A: PapG lectin domain N96S with R170A ligand binding site mutation; SEQ ID NO: 23 (protein) METDTLLLWVLLLWVPGSTGWNNIVFYSLGNVNSYQGGNVVITQRPQFITSWRPGIATVTWNQCNGPEFADGSWAYYREYIAWVVFPKKVMTKNGYPLFIEVHNKGSWSEENTGDSDSYFFLKGYKWDERAFDAGNLCQKPGETTRLTEKFNDIIFKVALPADLPLGDYSVTIPYTSGIQRHFASYLGAAFKIPYNVAKTLPRENEMLFLFKNIGG	55.83 °C
PapG^LD N96S W107A: PapG lectin domain N96S with W107A ligand binding site mutation; SEQ ID NO: 22 (protein) METDTLLLWVLLLWVPGSTGWNNIVFYSLGNVNSYQGGNVVITQRPQFITSWRPGIATVTWNQCNGPEFADGSWAYYREYIAWVVFPKKVMTKNGYPLFIEVHNKGSWSEENTGDSDSYFFLKGYKADERAFDAGNLCQKPGETTRLTEKFNDIIFKVALPADLPLGDYSVTIPYTSGIQRHFASYLGARFKIPYNVAKTLPRENEMLFLFKNIGG	62.64 °C
PapG^LD N96S WTv1: WT PapG lectin domain (V1, first PapG operon), N96S removes non-native glycosylation, His-tagged; SEQ ID NO: 13 (protein, His tag) METDTLLLWVLLLWVPGSTGWNNIVFYSLGNVNSYQGGNVVITQRPQFITSWRPGIATVTWNQCNGPEFADGSWAYYREYIAWVVFPKKVMTKNGYPLFIEVHNKGSWSEENTGDSDSYFFLKGYKWDERAFDAGNLCQKPGETTRLTEKFNDIIFKVALPADLPLGDYSVTIPYTSGIQRHFASYLGARFKIPYNVAKTLPRENEMLFLFKNIGG	61.29 °C

These data points were gathered from patent US20260061042A1.
